# measured on: T1, glucose-dependent insulinotropic peptide (gastric inhibitory polypeptide) receptor (human, UniProt P48546 22-466)
# T1 sequence (looked up): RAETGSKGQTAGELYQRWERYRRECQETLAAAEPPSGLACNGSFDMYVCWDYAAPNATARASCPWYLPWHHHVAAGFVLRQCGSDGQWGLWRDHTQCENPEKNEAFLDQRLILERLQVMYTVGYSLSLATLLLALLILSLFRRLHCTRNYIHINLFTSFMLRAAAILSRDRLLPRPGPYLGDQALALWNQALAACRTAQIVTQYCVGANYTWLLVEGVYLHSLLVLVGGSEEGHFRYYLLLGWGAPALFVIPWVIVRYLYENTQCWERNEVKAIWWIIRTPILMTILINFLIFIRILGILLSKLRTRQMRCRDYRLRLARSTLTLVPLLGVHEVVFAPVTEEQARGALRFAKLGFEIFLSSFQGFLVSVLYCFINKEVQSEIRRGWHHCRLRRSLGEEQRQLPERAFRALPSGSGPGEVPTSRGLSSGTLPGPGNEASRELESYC
# procedure text: cell-based or functional assay
Starred links: 1 amine or outer side, 2 acyl side, 3 side chain; linkers in the order of their positions; H or OH if unused. Non-standard residues stand in square brackets, D forms with d. Groups on a side chain read outwards from the residue. Primed or numbered codes have the meaning given here. No end group written: not given here. *: point of attachment. γGlu = O=C(O)[C@H](CCC(=O)[*:2])N[*:1]; Stearoyl = CCCCCCCCCCCCCCCCCC(=O)*; αMeF = C[C@](N)(Cc1ccccc1)C(=O)O; αMeK = C[C@](N)(CCCCN)C(=O)O; αMeS = C[C@](N)(CO)C(=O)O; PEG2′ = not defined here; Aib = CC(C)(N)C(=O)O
Consider the following binders; for each one, report its Primary assay EC50 (cAMP), n1.
Write the answer as a number in nM, unit excluded.

Challenge: Form field: reported Primary assay EC50 (cAMP), n1 of H[Aib]EGS[αMeF]TSDV[αMeS]S[αMeF]LEGEAAK([PEG2′-PEG2′-PEG2′-Stearoyl])EFIA[αMeF]VV[αMeK]GG-NH2 [SEQ ID NO 54]
Response given: 26

Challenge: Form field: reported Primary assay EC50 (cAMP), n1 of H[Aib]EGS[αMeF]TSDVSK([PEG2′-PEG2′-PEG2′-Stearoyl])YLEGEAAKE[αMeF]IA[αMeF]VVEGG-NH2 [SEQ ID NO 61]
Response given: 25

Challenge: Form field: reported Primary assay EC50 (cAMP), n1 of H[Aib]EGS[αMeF]TSDVSK([PEG2′-PEG2′-PEG2′-Stearoyl])YLEGEAA[αMeK]E[αMeF]IA[αMeF]VVEGG-NH2 [SEQ ID NO 64]
Response given: 25

Challenge: Form field: reported Primary assay EC50 (cAMP), n1 of H[Aib]EGS[αMeF]TDDV[αMeS]S[αMeF]LEGEAAK([PEG2′-PEG2′-γGlu-Stearoyl])E[αMeF]IA[αMeF]VV[αMeK]GG-NH2 [SEQ ID NO 36]
Response given: 84
